Taken from paper PMC9234961.

- targetDesc: endogenous BCL6 in OCI-Ly1 cells (Homo sapiens)
- protocolDetails: cell-based
- condition: mean maximal degradation of BCL6; OCI-Ly1 cells, 2 h
measurementType: MSD degrader assay [OCI-Ly1] Dmax (%)

In [3]: df
Out[3]:
                                    molecule                                targetdesc                    measurementtype  qual  readoutnumber
 0  C[C@@H]1C[C@H](O)CN(c2ncc(Cl)c(Nc3ccc4c(c3)c3c(c(=O)n4C)OCC(F)(F)[C@H](C4CC4)N3)n2)C1 [12b CCT373567]  endogenous BCL6 in OCI-Ly1 cells (Homo sapiens)  MSD degrader assay [OCI-Ly1] Dmax     >             30
 1  Cn1c(=O)c2c(c3cc(Nc4nc(N5CCC(F)(F)[C@H](O)C5)ncc4Cl)ccc31)N[C@@H](C1CC1)C(F)(F)CO2 (single isomer, unassigned)  endogenous BCL6 in OCI-Ly1 cells (Homo sapiens)  MSD degrader assay [OCI-Ly1] Dmax     >             30
 2  C[C@H]1C[C@H](O)CN(c2ncc(Cl)c(Nc3ccc4c(c3)c3c(c(=O)n4C)OCC(F)(F)[C@H](C4CC4)N3)n2)C1 [13b]  endogenous BCL6 in OCI-Ly1 cells (Homo sapiens)  MSD degrader assay [OCI-Ly1] Dmax     >             30
 3  C[C@@H]1C[C@H](N(C)C)CN(c2ncc(Cl)c(Nc3ccc4c(c3)c3c(c(=O)n4C)OCC(F)(F)[C@H](C4CC4)N3)n2)C1 [11b]  endogenous BCL6 in OCI-Ly1 cells (Homo sapiens)  MSD degrader assay [OCI-Ly1] Dmax     >             30
 4  CC(=O)N[C@H]1C[C@@H](C)CN(c2ncc(Cl)c(Nc3ccc4c(c3)c3c(c(=O)n4C)OCC(F)(F)[C@H](C4CC4)N3)n2)C1 [10b]  endogenous BCL6 in OCI-Ly1 cells (Homo sapiens)  MSD degrader assay [OCI-Ly1] Dmax     >             30
 5  C[C@H]1C[C@@H](N(C)C)CN(c2ncc(Cl)c(Nc3ccc4c(c3)c3c(c(=O)n4C)OCC(F)(F)[C@H](C4CC4)N3)n2)C1 [11a]  endogenous BCL6 in OCI-Ly1 cells (Homo sapiens)  MSD degrader assay [OCI-Ly1] Dmax     =             56
 6  C[C@H]1C[C@@H](O)CN(c2ncc(Cl)c(Nc3ccc4c(c3)c3c(c(=O)n4C)OCC(F)(F)[C@H](C4CC4)N3)n2)C1 [12a CCT373566]  endogenous BCL6 in OCI-Ly1 cells (Homo sapiens)  MSD degrader assay [OCI-Ly1] Dmax     >             90
 7  C[C@@H]1C[C@@H](O)CN(c2ncc(Cl)c(Nc3ccc4c(c3)c3c(c(=O)n4C)OCC(F)(F)[C@H](C4CC4)N3)n2)C1 [13a]  endogenous BCL6 in OCI-Ly1 cells (Homo sapiens)  MSD degrader assay [OCI-Ly1] Dmax     >             30
 8  Cn1c(=O)c2c(c3cc(Nc4nc(N5CCC[C@@H](O)C5)ncc4Cl)ccc31)N[C@@H](C1CC1)C(F)(F)CO2 [14a]  endogenous BCL6 in OCI-Ly1 cells (Homo sapiens)  MSD degrader assay [OCI-Ly1] Dmax     =             35
 9  C[C@H]1CCCN(c2ncc(Cl)c(Nc3ccc4c(c3)c3c(c(=O)n4C)OCC(F)(F)[C@H](C4CC4)N3)n2)C1 [15a]  endogenous BCL6 in OCI-Ly1 cells (Homo sapiens)  MSD degrader assay [OCI-Ly1] Dmax     =             86
10  Cn1c(=O)c2c(c3cc(Nc4nc(N5CCC(F)(F)[C@@H](O)C5)ncc4Cl)ccc31)N[C@@H](C1CC1)C(F)(F)CO2 (single isomer, unassigned)  endogenous BCL6 in OCI-Ly1 cells (Homo sapiens)  MSD degrader assay [OCI-Ly1] Dmax     =             60
11  Cn1c(=O)c2c(c3cc(Nc4nc(N5CCC[C@H](O)C5)ncc4Cl)ccc31)N[C@@H](C1CC1)C(F)(F)CO2 [14b]  endogenous BCL6 in OCI-Ly1 cells (Homo sapiens)  MSD degrader assay [OCI-Ly1] Dmax     >             30
12  C[C@H]1C[C@@H](O)CN(c2ncc(Cl)c(Nc3ccc4c(c3)n(CCC(C)(C)O)c(=O)n4C)n2)C1 (relative stereo)  endogenous BCL6 in OCI-Ly1 cells (Homo sapiens)  MSD degrader assay [OCI-Ly1] Dmax     =             89
13  Cn1c(=O)n(CCC(C)(C)O)c2cc(Nc3nc(N4CCC(F)(F)C(O)C4)ncc3Cl)ccc21 (stereo not drawn)  endogenous BCL6 in OCI-Ly1 cells (Homo sapiens)  MSD degrader assay [OCI-Ly1] Dmax     =             78
